The measurements presented in this section are drawn from paper PMC10294657.

- Target Entity: Tlp1 (Cj1506c), Tlp1-LBD (Campylobacter jejuni, UniProt Q0P8B2)
- Sequence (Q0P8B2 entry or part of it): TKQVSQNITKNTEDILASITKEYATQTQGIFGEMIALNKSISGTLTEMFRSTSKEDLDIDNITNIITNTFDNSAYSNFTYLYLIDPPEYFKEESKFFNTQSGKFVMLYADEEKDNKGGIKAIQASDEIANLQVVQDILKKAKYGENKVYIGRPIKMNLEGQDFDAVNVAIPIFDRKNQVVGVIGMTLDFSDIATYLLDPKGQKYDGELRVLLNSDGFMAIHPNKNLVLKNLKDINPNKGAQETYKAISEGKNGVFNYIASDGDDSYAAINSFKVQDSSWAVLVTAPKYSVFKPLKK
Parameter: Kd (µM)
Respond with the bare value in µM.

Find the recorded Kd belonging to O=CO [formate] and report it.
245
